targetOrSystem: T1, Activin A (UniProt P08476 311-426)
T1 sequence (looked up): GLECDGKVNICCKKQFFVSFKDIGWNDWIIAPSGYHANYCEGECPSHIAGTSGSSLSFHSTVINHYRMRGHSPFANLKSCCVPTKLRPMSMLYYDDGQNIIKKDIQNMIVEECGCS
experimentNotes: SPR (Biacore 3000), receptor captured on chip, ligand in solution
pKd: −log10 of the molar value.
measuredQuantity: pKd

ActRIIa/b variant (SEQ ID NO: 69) (receptor, Engineered extracellular ActRIIa variant; not shown: Carrier and linker) GAILGRSETQECLFYNANWELERTNQTGVERCEGEKDKRLHCYATWRNISGSIEIVKKGCWLDDFNCYDRTDCVETEENPQVYFCCCEGNMCNEKFSYFPEMEVTQPTS = 9.27
ActRIIa/bΔ9 min variant (SEQ ID NO: 6) (receptor, Engineered extracellular ActRIIa variant; not shown: Fusion partner and its linker) GAILGRSETQECLFYNANWELDRTNQTGVEPCEGEKDKRLHCFATWKNISGSIEIVKKGCWLDDINCYDRTDCVETKENPQVYFCCCEGNMCNEKFSYFPEMEVTQPTS = 9.51

// provenance: patent US20190282663A1
